Below, IC50 values reported for Homeodomain-interacting protein kinase 4 (Homo sapiens, UniProt Q8NE63) across several publications.
Quantity measured: IC50

                                chem_smiles  quantity_measured  test_value
0  Cc1[nH]c(/C=C2\C(=O)Nc3ccc(S(=O)(=O)Cc4c(Cl)cccc4Cl)cc32)c(C)c1C(=O)N1CCC[C@@H]1CN1CCCC1               IC50      100 nM
1  N#CCNC(=O)c1ccc(-c2ccnc(Nc3ccc(N4CCOCC4)cc3)n2)cc1               IC50   < 1000 nM
2  CNC(=O)c1cc(Oc2ccc(NC(=O)Nc3cc(C(C)(C)C)nn3-c3ccc4ncccc4c3)c(F)c2)ccn1               IC50      450 nM
3  COC(=O)Nc1cc(-c2ccc(OC[C@@](C)(N)CC(C)C)c(Cl)n2)ccn1               IC50     1100 nM
4  COC(=O)Nc1cc(-c2ccc(OC[C@@](C)(N)CC(C)C)c(C(F)F)n2)ccn1               IC50      650 nM
5  CNC(=O)c1cc(Oc2ccc(NC(=O)c3nc(SC)oc3-c3ccc(F)cc3)cc2F)ccn1               IC50      2.8 nM
6  COC[C@@H](CC(C)C)NC1=N/C(=C\c2ccc3scnc3c2)C(=O)N1               IC50  > 10000 nM
7  CNC(=O)c1cc(Oc2ccc(NC(=O)c3n[nH]nc3-c3ccc(F)cc3)cc2)ccn1               IC50       49 nM
8  COC(=O)Nc1cc(-c2cnc(OC[C@@](C)(N)CC(C)C)c(C)c2)ccn1               IC50     1800 nM
9  COC(=O)Nc1cc(-c2cnc(OC[C@@](C)(N)CC(C)C)c(Cl)c2)ccn1               IC50     1300 nM
